# Tested on: M109
# method: In vivo cytotoxicity of intraperitoneally administered compound at dose 1.6 mg/kg/inj was determined against ip implanted murine M-109 lung carcinoma
# Format: organism-based
# Design: route intraperitoneal
# experimentalContext: mouse
measurementKind: T/C (%)
One number for each entry, in %.

Just so you know, measured T/C for CC(=O)O[C@H]1C(=O)[C@@]2(C)C([C@H](OC(=O)c3ccccc3)[C@]3(O)C[C@H](OC(=O)[C@H](O)C(NC(=O)OC(C)(C)C)c4ccccc4)C(C)=C1C3(C)C)[C@]1(OC(=O)C3CC3)CO[C@@H]1C[C@@H]2O (stereo partly specified) came out at 115

###

# System: M109
# method: In vivo cytotoxicity of intraperitoneally administered compound at dose 32 mg/kg/inj was determined against ip implanted murine M-109 lung carcinoma
# Type: organism-based
# Parameters: route intraperitoneal
# experimentalContext: mouse
measurementKind: T/C

The value of T/C measured for the molecule COC(=O)O[C@@]12CO[C@@H]1C[C@H](O)[C@@]1(C)C(=O)[C@H](OC(C)=O)C3=C(C)[C@@H](OC(=O)[C@H](O)C(NC(=O)OC(C)(C)C)c4ccco4)C[C@@](O)([C@@H](OC(=O)c4ccccc4)C12)C3(C)C (stereo partly specified) turned out to be 183%

###

Give T/C for every item shown.
# Tested on: M109
# method: In vivo cytotoxicity of intraperitoneally administered compound at dose 4 mg/kg/inj was determined against ip implanted murine M-109 lung carcinoma
# Assay type: organism-based
# Set-up: route intraperitoneal
# experimentalContext: mouse
Give bare numbers, in %.

[[record]]
compound = "CC(=O)O[C@H]1C(=O)[C@@]2(C)C([C@H](OC(=O)c3ccccc3)[C@]3(O)C[C@H](OC(=O)[C@H](O)C(NC(=O)OC(C)(C)C)c4ccco4)C(C)=C1C3(C)C)[C@]1(OC(=O)C3CC3)CO[C@@H]1C[C@@H]2O (some centres not stated)"
targetsystem = "M109"
unitabbrev = "%"
experimentalvalue = 100


# context switch: different compound, same T/C
So, CCOC(=O)O[C@@]12CO[C@@H]1C[C@H](O)[C@@]1(C)C(=O)[C@H](OC(C)=O)C3=C(C)[C@@H](OC(=O)[C@H](O)C(NC(=O)OC(C)(C)C)c4ccco4)C[C@@](O)([C@@H](OC(=O)c4ccccc4)C12)C3(C)C (some centres not stated) ? Its T/C was 144

These data points were gathered from ChEMBL document CHEMBL1153670.
